System: WNK3;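 also: KINOMEscan kinase panel screen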
Details: concentration: 1 μM, replicates: in singlicate; n = 1
Values of %Inh strictly less than 30% map to Y, and values of at least 30% map to N.

>>> category("Cc1ccc(NC(=O)c2ccnc(N3CCCCC3)c2)cc1-c1ccc(C(=O)NCC2CC2)cc1")
"Y"

Prompt: Determine if Cc1cccc(Nc2nc(NCCN)ncc2C(N)=O)c1 shows %Inh strictly lower than 30%.
Response: N

Prompt: Determine if Cc1cccc(Nc2nc(N[C@H]3CCCC[C@H]3N)ncc2C(N)=O)c1.Cl shows %Inh strictly lower than 30%.
Response: N

Prompt: Determine if CC(C)NCC(Cc1ccccc1)NC(=O)c1cc(Br)c(-c2ccnc3[nH]ccc23)s1.Cl.Cl (stereo not drawn) shows %Inh strictly lower than 30%.
Response: Y

Prompt: Determine if CN(C)CCNS(=O)(=O)c1ccc(-c2ccnc3[nH]ccc23)cc1 shows %Inh strictly lower than 30%.
Response: Y

Prompt: Determine if Cl.N#CCc1ccc(Nc2nccc(Nc3ccc(Oc4ccccc4)cc3)n2)cc1 shows %Inh strictly lower than 30%.
Response: Y

Prompt: Determine if Cc1ccc(-c2ccc3occ(-c4ccc(S(C)=O)cc4)c3c2)nn1 (stereo not drawn) shows %Inh strictly lower than 30%.
Response: Y

Prompt: Determine if COc1ccc(C2=C(Nc3cccc(O)c3)C(=O)NC2=O)cc1 shows %Inh strictly lower than 30%.
Response: N

Prompt: Determine if CCn1c(-c2nonc2N)nc2c(-c3ccccc3)ncc(OCCCN)c21.O=C(O)C(F)(F)F.O=C(O)C(F)(F)F shows %Inh strictly lower than 30%.
Response: N

Cited source for all entries: paper PMC5540273
